// provenance: ChEMBL document CHEMBL4346755

# TEST PROTOCOL: Inhibition of rat recombinant FLAG-tagged PTGES expressed in baculovirus infected Hi-5 insect cells using prostaglandin H2 as substrate incubated for 20 mins followed by substrate addition and incubated for 60 sec by TR-FRET assay
Please go through the items and note down their IC50.
Only the number, expressed in µM, is required.

Query :: What value of IC50 has been reported for the following molecule? Cc1c(NC(=O)[C@@H](c2ccc(-c3cncc(Cl)c3)cc2)C2CCCC2)cccc1[C@@H](C)CC(=O)O
Result :: 1.36

Query :: Proceed to Cc1c(CCC(=O)O)cccc1NC(=O)[C@@H](c1ccc(-c2cncc(Cl)c2)cc1)C1CCCC1
Result :: 1.27

Query :: // query: Cc1c(NC(=O)[C@@H](c2ccc(-c3cncc(Cl)c3)cc2)C2CCCC2)cccc1[C@H](C)CC(=O)O
Result :: 0.895

Query :: Next entry: Cc1c(NC(=O)[C@H](c2ccc(-c3cncc(Cl)c3)cc2)C2CCCC2)cccc1[C@@H](C)CC(=O)O
Result :: 17.7

Query :: Query CC[C@@H](CC(=O)O)c1cccc(NC(=O)C(c2ccc(-c3cncc(CC(C)C)c3)cc2)C2CCCC2)c1C (stereo partly drawn) next
Result :: 0.162

Query :: Lookup CCc1cncc(-c2ccc(C(C(=O)Nc3cccc([C@@H](CC)CC(=O)O)c3C)C3CCCC3)cc2)c1 (stereo partly drawn)
Result :: 0.19

Query :: Same for Cc1cncc(-c2ccc(C(C(=O)Nc3cccc(CCC(=O)O)c3C)C3CCCC3)cc2)c1 (stereo not drawn)
Result :: 2.59

Query :: // next record Cc1c(NC(=O)[C@H](c2ccc(-c3cncc(Cl)c3)cc2)C2CCCC2)cccc1[C@H](C)CC(=O)O
Result :: 8.46

* * *

Hi there, I'd appreciate the recorded hepatic extraction ratio at […], 1 µM for every entry that follows.
# TEST PROTOCOL: Hepatic extraction ratio in Han Wistar rat liver microsomes at 1 uM measured upto 90 mins by LC-MS/MS
# Format: ADME, Microsome
# MEASUREMENT CONTEXT: read-out: ERH
Reply with the value as a number alone.

Query :: // lookup hepatic extraction ratio at […], 1 µM for CCc1cncc(-c2ccc(C(C(=O)Nc3cccc([C@@H](CC)CC(=O)O)c3C)C3CCCC3)cc2)c1 (some centres not stated)
Result :: 0.44

Query :: Same thing, different compound: Cc1c(CCC(=O)O)cccc1NC(=O)[C@@H](c1ccc(-c2cncc(Cl)c2)cc1)C1CCCC1
Result :: 0.02

* * *

# TEST PROTOCOL: Efflux ratio of apparent permeability from basolateral to apical over apical to basolateral side in human Caco2 cells at 2 uM incubated for 2 hrs by LC/MS/MS analysis
# Type: ADME, cell-based
# MEASUREMENT CONTEXT: Caco-2
READOUT LABEL: efflux ratio at 2 h, 2 µM
Give only the figure.

Query :: Which measured efflux ratio at 2 h, 2 µM value corresponds to Cc1c(CCC(=O)O)cccc1NC(=O)[C@@H](c1ccc(-c2cncc(Cl)c2)cc1)C1CCCC1 ?
Result :: 2.9

* * *

# STUDY SYSTEM: UniProt:Q9JM51
# Sequence (Q9JM51 whole entry): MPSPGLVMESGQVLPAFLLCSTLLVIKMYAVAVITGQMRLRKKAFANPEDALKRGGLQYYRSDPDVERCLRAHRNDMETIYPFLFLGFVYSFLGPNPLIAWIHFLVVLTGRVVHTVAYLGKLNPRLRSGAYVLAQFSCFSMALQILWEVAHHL
# TEST PROTOCOL: Inhibition of mouse recombinant FLAG-tagged PTGES expressed in baculovirus infected Hi-5 insect cells using prostaglandin H2 as substrate incubated for 20 mins followed by substrate addition and incubated for 60 sec by TR-FRET assay
READOUT LABEL: IC50 (nM)
Hi! Could you send only the number? It should be in nM, unit omitted.

Query :: Look up IC50: Cc1c(CCC(=O)O)cccc1NC(=O)[C@@H](c1ccc(-c2cncc(Cl)c2)cc1)C1CCCC1
Result :: 765

Query :: Thanks! And Cc1c(NC(=O)[C@H](c2ccc(-c3cncc(Cl)c3)cc2)C2CCCC2)cccc1[C@H](C)CC(=O)O ?
Result :: 3080

Query :: Try this molecule next: Cc1cncc(-c2ccc(C(C(=O)Nc3cccc(CCC(=O)O)c3C)C3CCCC3)cc2)c1 (centres undefined)
Result :: 818

Query :: Check CC[C@@H](CC(=O)O)c1cccc(NC(=O)C(c2ccc(-c3cncc(CC(C)C)c3)cc2)C2CCCC2)c1C (some centres undefined) too.
Result :: 84

Query :: Thanks! And Cc1c(NC(=O)[C@@H](c2ccc(-c3cncc(Cl)c3)cc2)C2CCCC2)cccc1[C@H](C)CC(=O)O ?
Result :: 339

Query :: Query Cc1c(NC(=O)[C@@H](c2ccc(-c3cncc(Cl)c3)cc2)C2CCCC2)cccc1[C@@H](C)CC(=O)O next
Result :: 584

Query :: Now this one: Cc1c(NC(=O)[C@H](c2ccc(-c3cncc(Cl)c3)cc2)C2CCCC2)cccc1[C@@H](C)CC(=O)O
Result :: 12600

Query :: Can you handle CCc1cncc(-c2ccc(C(C(=O)Nc3cccc([C@@H](CC)CC(=O)O)c3C)C3CCCC3)cc2)c1 (some centres undefined) next?
Result :: 203

Query :: # repeat for Cc1c(CCC(=O)O)cccc1NC(=O)C(c1ccc(-c2cncc(CC(C)C)c2)cc1)C1CCCC1 (centres undefined)
Result :: 191
